Quick reference for pIC50 among some molecules
- System: HL-60
- TEST DETAILS: Cytotoxicity against human HL60 cells after 72 hrs by MTT assay
- Type: functional, cell-based
- EXPERIMENTAL SETUP: HL-60, 72 h
pIC50: −log10 of the molar value.
MEASURED ENDPOINT: pIC50

* Cc1c([C@H](C)[C@H](C)O)c(O)c2oc3cc(=O)c(C)c4c-3c(c2c1O)O[C@H](C)[C@H]4C [PENNICITRINONE C] | < 4.30
* CO[C@@]12O[C@H](C)[C@@H](C)C1=C(C)C(=O)C1=C2Oc2cc(O)c(C)c3c2[C@H]1O[C@H](C)[C@H]3C [PENICITRINOL B] | < 4.30
